protocol_text: Antitumor activity against human L02 cells assessed as inhibition of cell growth by SRB assay
Format: toxicity, cell-based
Assign IC50 to each entry below.

Consider the following illustrative entries.
Prompt line: Complete the entry with IC50 for CC1=CC(=O)c2c(O)cccc2[C@@]12Oc1cc(O)cc(C)c1C2=O
Response line: > 50 µM

Prompt line: Complete the entry with IC50 for CC1=CC(=O)c2c(O)cccc2[C@]12Oc1cc(O)cc(C)c1C2=O
Response line: > 50 µM

Others:
Prompt line: Complete the entry with IC50 for Cc1cc(=O)c2c(C/C=C/[C@@H](O)Cc3cc(O)cc(=O)o3)cc(O)cc2o1
Response line: > 50 µM

###

Test system: NCI-H446
protocol_text: Antitumor activity against human NCI-H446 cells assessed as inhibition of cell growth by SRB assay
Type: functional, cell-based
Assign IC50 to each entry below.

Consider the following illustrative entries.
Prompt line: Complete the entry with IC50 for CC1=CC(=O)c2c(O)cccc2[C@]12Oc1cc(O)cc(C)c1C2=O
Response line: > 50 µM

Prompt line: Complete the entry with IC50 for Cc1cc(=O)c2c(C/C=C/[C@@H](O)Cc3cc(O)cc(=O)o3)cc(O)cc2o1
Response line: > 50 µM

Others:
Prompt line: Complete the entry with IC50 for CC1=CC(=O)c2c(O)cccc2[C@@]12Oc1cc(O)cc(C)c1C2=O
Response line: 2.26 µM

###

protocol_text: Antitumor activity against human L02 cells assessed as inhibition of cell growth by SRB assay
Format: toxicity, cell-based
Counter-ions that a name gives are not always drawn.
Assign IC50 to each entry below.

Prompt line: Complete the entry with IC50 for COc1cccc2c1C(=O)c1c(O)c3c(c(O)c1C2=O)C[C@@](O)(C(=O)CO)C[C@@H]3O[C@H]1C[C@H](N)[C@H](O)[C@H](C)O1 [DOXORUBICIN HYDROCHLORIDE]
Response line: 0.33 µM

Prompt line: Complete the entry with IC50 for Cc1cc(=O)c2c3c(c(O)cc2o1)/C(=C/c1cc(=O)cc(O)o1)C[C@@H](O)C3
Response line: > 50 µM

Prompt line: Complete the entry with IC50 for Cc1cc(=O)c2c3c(c(O)cc2o1)[C@](O)(Cc1cc(=O)cc(O)o1)C[C@@H](O)C3
Response line: > 50 µM

Others:
Prompt line: Complete the entry with IC50 for Cc1cc(=O)c2c(CCCC(=O)Cc3cc(O)cc(=O)o3)cc(O)cc2o1
Response line: < 50 µM
